test system: SN12C; experiment: NCI60 one-dose screen (10 μM), Renal Cancer; format: cell-based; details: Homo sapiens, 10 μM, Renal Cancer, read-out: Growth percent rate
Param label: returns condition met when activity at 10 µM < 10%, returns condition not met otherwise, including exact equality.

[[record]]
compound = "CC[C@]12C=CCN3CC[C@@]4(c5ccc(OC)cc5N(C)[C@H]4[C@@](O)(C(=O)OC)[C@@H]1OC(=O)CCC(=O)N1CCN(C(c4ccc(F)cc4)c4ccc(F)cc4)CC1)[C@@H]32"
label = "condition met"

[[record]]
compound = "CC[C@]12C=CCN3CC[C@@]4(c5ccc(OC)cc5N(C)[C@H]4[C@@](O)(C(=O)OC)[C@@H]1OC(=O)CCCN1CCN(c4ccc(C(F)(F)F)cc4)CC1)[C@@H]32"
label = "condition met"

[[record]]
compound = "CCC12C=CCN3CCC4(c5ccc(OC)cc5N(C)C4C(O)(C(=O)OC)C1OC(=O)CCC(=O)O)C32 (stereo not drawn)"
label = "condition not met"

[[record]]
compound = "CC[C@]12C=CCN3CC[C@@]4(c5ccc(OC)cc5N(C)[C@H]4[C@@](O)(C(=O)OC)[C@@H]1OC(=O)CCC(=O)N1CCN(Cc4ccc(C(F)(F)F)cc4)CC1)[C@@H]32"
label = "condition not met"

[[record]]
compound = "CCC12C=CCN3CCC4(c5ccc(OC)cc5N(C)C4C(O)(C(=O)OC)C1OC(=O)CCCBr)C32 (stereo not drawn)"
label = "condition not met"


(Q) Just wondering, is activity at 10 µM of CC[C@]12C=CCN3CC[C@@]4(c5ccc(OC)cc5N(C)[C@H]4[C@@](O)(C(=O)OC)[C@@H]1OC(=O)CCCN1CCN(C(=O)c4ccco4)CC1)[C@@H]32 below 10%?
(A) condition not met

* * *

For each record, write down the corresponding GI50.
system: OVCAR-5; experiment: NCI60 five-dose screen, Ovarian Cancer; format: cell-based; details: Homo sapiens; OVCAR-5, Ovarian Cancer; five-dose screen; read-out: GI50
Numbers only, in µM.

Worked cases, GI50 given:
[[record]]
compound = "CCC12C=CCN3CCC4(c5cc(NC(=O)CN6CCN(C(c7ccc(F)cc7)c7ccc(F)cc7)CC6)c(OC)cc5N(C)C4C(O)(C(=O)OC)C1OC(C)=O)C32 (stereo not drawn)"
value_measured = 3.55

[[record]]
compound = "CC[C@]12C=CCN3CC[C@@]4(c5ccc(OC)cc5N(C)[C@H]4[C@@](O)(C(=O)OC)[C@@H]1OC(=O)CCCN1CCN(c4ccc(C(F)(F)F)cc4)CC1)[C@@H]32"
value_measured = 4.07


Alright, here's another compound for you.
(Q) What value of GI50 has been reported for the following compound? CC[C@]12C=CCN3CC[C@@]4(c5ccc(OC)cc5N(C)[C@H]4[C@@](O)(C(=O)OC)[C@@H]1OC(=O)CCC(=O)N1CCN(C(c4ccc(F)cc4)c4ccc(F)cc4)CC1)[C@@H]32
(A) 2.18

* * *

For each record, write down the corresponding activity at 10 µM.
test system: HOP-92; assay: NCI60 one-dose screen (10 μM), Non-small Cell Lung Cancer; assay type: cell-based; conditions: Homo sapiens; 10 μM; HOP-92, Non-small Cell Lung Cancer; read-out: Growth percent rate
Answers are plain numbers, in %.

[[record]]
compound = "CC[C@]12C=CCN3CC[C@@]4(c5ccc(OC)cc5N(C)[C@H]4[C@@](O)(C(=O)OC)[C@@H]1OC(=O)CCC(=O)N1CCN(C)CC1)[C@@H]32"
value_measured = 105


Could you tell me activity at 10 µM for each of these compounds? They are listed below.
1. CC[C@]12C=CCN3CC[C@@]4(c5ccc(OC)cc5N(C)[C@H]4[C@@](O)(C(=O)OC)[C@@H]1OC(=O)CCC(=O)N1CCN(c4ccc(C(F)(F)F)cc4)CC1)[C@@H]32
2. CCC12C=CCN3CCC4(c5ccc(OC)cc5N(C)C4C(O)(C(=O)OC)C1OC(=O)CCCBr)C32 (stereo not drawn)

(A)
1. -3.33
2. 77.6

Cited source for all entries: paper PMC11277489
